Target: RSV F protein (C-terminal truncated) (respiratory syncytial virus, UniProt P03420)
Sequence (P03420 26-524): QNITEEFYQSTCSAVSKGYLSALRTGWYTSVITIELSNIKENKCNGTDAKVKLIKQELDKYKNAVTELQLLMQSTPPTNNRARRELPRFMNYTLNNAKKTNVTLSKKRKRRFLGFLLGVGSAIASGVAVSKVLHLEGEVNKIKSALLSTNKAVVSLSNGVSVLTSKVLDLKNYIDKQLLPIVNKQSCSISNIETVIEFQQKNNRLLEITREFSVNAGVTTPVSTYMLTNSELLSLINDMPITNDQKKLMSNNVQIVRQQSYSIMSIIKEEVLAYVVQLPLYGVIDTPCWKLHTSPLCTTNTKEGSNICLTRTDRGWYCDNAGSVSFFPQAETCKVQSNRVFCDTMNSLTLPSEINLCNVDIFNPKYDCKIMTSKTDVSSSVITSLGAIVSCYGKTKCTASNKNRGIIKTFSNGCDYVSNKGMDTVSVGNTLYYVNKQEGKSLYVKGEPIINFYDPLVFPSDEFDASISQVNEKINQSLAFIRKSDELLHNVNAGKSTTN
Assay: SPR
Please go through the items and note down their Kd.

stdin: # return recorded Kd for input H1129 (humanized 1129) (antibody, V domains shown) VH: QVTLRESGPALVKPSQTLTLTCSFSGFSLSTSGMSVGWIRQPSGKALEWLADIWWDDKKDYNPSLKSRLTISKDTSKNQVVLKVTNVDPADTATYYCARSMITNWYFDVWGAGTTVTVSS VL: DIQMTQSPSTLSASVGDRVTITCKCQLSVGYMHWYQQKPGKAPKLWIYDTSKLASGVPSRFSGSGSGTEFTLTISSLQPDDFATYYCFQGSGYPFTFGGGTKLEIK
stdout: 1.4 nM

stdin: Answer with the recorded Kd of M1308F (antibody, V domains shown) VH: EVQLQQSGAELVRPGALVKLSCKASGFNIKDYYIYWVKQRPEQGLEWIGWIDPENGNTVFDPKFQGKASITSDTSSNTAYLQLSSLTSEDTAVYYCAYYGTSSFDFWGQGTTLTVSS VL: DIKMTQSPSSMYVSLGERVTITCKASQDINRYLNWFQQKPGKSPKTLIHRANRLVDGVPSRFSGSGSGQEYSLTISSLEFEDMGIYYCLQFHEFPYTFGGGTKLEIK only.
stdout: 1.1 nM

stdin: Give a short answer stating reported Kd for M1129 (antibody, V domains shown) VH: QVELQESGPGILQPSQTLSLTCSFSGFSLSTSGMSVGWIRQPSGEGLEWLADIWWDDKKDYNPSLKSRLTISKDTSSNQVFLKITGVDTADTATYYCARSMITNWYFDVWGAGTTVTVSS VL: DIQLTQSPAIMSASPGEKVTMTCSASSSVGYMHWYQQKSSTSPKLWIYDTSKLASGVPGRFSGSGSGNSYSLTISSIQAEDVATYYCFQGSGYPFTFGGGTKLEIK .
stdout: 11.4 nM

stdin: Consider the binder H1308F (antibody, V domains shown) VH: QVQLVQSGAEVKKPGASVKVSCKASGFNIKDYYIYWVRQAPGQGLEWIGWIDPENGNTVFDPKFQGRVTMTRDTSTSTVYMELSSLRSEDTAVYYCAYYGTSSFDFWGQGTTLTVSS VL: DIQMTQSPSTLSASVGDRVTITCKASQDINRYLNWYQQKPGKAPKLLIYRANRLVDGVPSRFSGSGSGTEFTLTISSLQPDDFATYYCLQFHEFPYTFGGGTKLEIK . State its measured Kd.
stdout: 2.5 nM
